Data provenance: ChEMBL document CHEMBL3046492

- Tested on: Mythimna separata
- ASSAY REMARKS: Insecticidal activity against fourth-instar larval stage of Mythimna separata (Oriental armyworm) in compound pretreated corn leaves assessed as mortality at 10 mg/kg at 25 +/-1 degC measured after 2 days
- Assay type: functional
VALUE TYPE: mortality at 10 mg/kg (%)
Numbers only, in %.

N#Cc1c(Br)c(C(F)(F)F)n(COC(=O)C(=O)c2ccccc2)c1-c1ccc(Cl)cc1 ... 60
N#Cc1c(Br)c(C(F)(F)F)n(COC(=O)c2ccccc2Cl)c1-c1ccc(Cl)cc1 ... 35
CC(Oc1ccc(C(C)(C)C)cc1)C(=O)OCn1c(-c2ccc(Cl)cc2)c(C#N)c(Br)c1C(F)(F)F (centres undefined) ... 30
N#Cc1c(Br)c(C(F)(F)F)n(COC(=O)c2ccc(N)cc2)c1-c1ccc(Cl)cc1 ... 0
COc1cccc(C(=O)OCn2c(-c3ccc(Cl)cc3)c(C#N)c(Br)c2C(F)(F)F)c1 ... 90

Would you mind listing mortality at 10 mg/kg for each of the following compounds?
1. Cc1cccc(OC(C)C(=O)OCn2c(-c3ccc(Cl)cc3)c(C#N)c(Br)c2C(F)(F)F)c1 (centres undefined)
2. CC(C)CC(=O)OCn1c(-c2ccc(Cl)cc2)c(C#N)c(Br)c1C(F)(F)F
3. CCC(=O)OCn1c(-c2ccc(Cl)cc2)c(C#N)c(Br)c1C(F)(F)F
4. CCOC(=O)OCn1c(-c2ccc(Cl)cc2)c(C#N)c(Br)c1C(F)(F)F

1: 40; 2: 100; 3: 90; 4: 90

###

- System: Mythimna separata
- ASSAY REMARKS: Insecticidal activity against fourth-instar larval stage of Mythimna separata (Oriental armyworm) in compound pretreated corn leaves assessed as mortality at 10 mg/kg at 25 +/-1 degC measured after 2 days
- Format: functional
VALUE TYPE: mortality at 10 mg/kg (%)
Numbers only, in %.

Example results:
N#Cc1c(Br)c(C(F)(F)F)n(COC(=O)c2ccccc2N)c1-c1ccc(Cl)cc1 ... 0
N#Cc1c(Br)c(C(F)(F)F)n(COC=O)c1-c1ccc(Cl)cc1 ... 100
COc1ccc(C(=O)OCn2c(-c3ccc(Cl)cc3)c(C#N)c(Br)c2C(F)(F)F)cc1 ... 90
CCOCn1c(-c2ccc(Cl)cc2)c(C#N)c(Br)c1C(F)(F)F [CHLORFENAPYR] ... 100
CCCC(=O)OCn1c(-c2ccc(Cl)cc2)c(C#N)c(Br)c1C(F)(F)F ... 100
CC(C)C(=O)OCn1c(-c2ccc(Cl)cc2)c(C#N)c(Br)c1C(F)(F)F ... 100
CC(Oc1cccc([N+](=O)[O-])c1)C(=O)OCn1c(-c2ccc(Cl)cc2)c(C#N)c(Br)c1C(F)(F)F (stereo not drawn) ... 85
N#Cc1c(Br)c(C(F)(F)F)n(COC(=O)c2ccc(Cl)cc2)c1-c1ccc(Cl)cc1 ... 100
CC(Oc1ccc(Cl)cc1)C(=O)OCn1c(-c2ccc(Cl)cc2)c(C#N)c(Br)c1C(F)(F)F (stereo not drawn) ... 80
CC(=O)OCn1c(-c2ccc(Cl)cc2)c(C#N)c(Br)c1C(F)(F)F ... 90

Kindly give each listed record's mortality at 10 mg/kg.
1. CC(Oc1cccc(Cl)c1)C(=O)OCn1c(-c2ccc(Cl)cc2)c(C#N)c(Br)c1C(F)(F)F (stereo not drawn)
2. N#Cc1c(Br)c(C(F)(F)F)n(COC(=O)c2ccccc2[N+](=O)[O-])c1-c1ccc(Cl)cc1
3. N#Cc1c(Br)c(C(F)(F)F)n(COC(=O)c2ccccc2)c1-c1ccc(Cl)cc1
4. N#Cc1c(Br)c(C(F)(F)F)n(COC(=O)c2ccc([N+](=O)[O-])cc2)c1-c1ccc(Cl)cc1
5. N#Cc1c(Br)c(C(F)(F)F)n(COC(=O)c2cccc([N+](=O)[O-])c2)c1-c1ccc(Cl)cc1
6. Cc1ccc(C(=O)OCn2c(-c3ccc(Cl)cc3)c(C#N)c(Br)c2C(F)(F)F)cc1

[45, 100, 60, 50, 0, 100]

Provide mortality at 10 mg/kg values for the following items, in order.
1. N#Cc1c(Br)c(C(F)(F)F)n(COC(=O)c2cc([N+](=O)[O-])cc([N+](=O)[O-])c2)c1-c1ccc(Cl)cc1
2. CCCCC(=O)OCn1c(-c2ccc(Cl)cc2)c(C#N)c(Br)c1C(F)(F)F

0
100
